Settings: [M-H]-; instrument: DT; single field, calibrated with Agilent tune mix (Agilent)
PARAMETER: collision cross section (N2) (Å²)
Answer in Å², number only, no unit symbol.

Exercise: Please look up its collision cross section (N2): CCCCC/C=C\C/C=C\CCCCCCCCCCCC(=O)O[C@H](COC(=O)CCCCCCC/C=C\CCCCCC)COP(=O)(O)OCCN [PE(38:3)]
Key: 273.3

---

Settings: [M+Na]+; instrument: DT; single field, calibrated with Agilent tune mix (Agilent)
collision cross section (N2) reference
Answer in Å², number only, no unit symbol.

Consider the following illustrative entries.
CCCCC/C=C\C/C=C\CCCCCCCC(=O)O[C@H](COC(=O)CCCCCCCCCCCCCCCCC)COP(=O)(O)O [PA(36:2)] ... 274
CCCCCCCC/C=C\CCCCCCCC(=O)OC[C@@H](O)COP(=O)([O-])OCC[N+](C)(C)C [LPC(18:1)] ... 236.1
CCCCC/C=C\C/C=C\CCCCCCCCCCCC(=O)O[C@H](COC(=O)CCCCCCC/C=C\CCCCC)COP(=O)(O)O[C@H]1C(O)C(O)C(O)[C@@H](O)C1O (stereo partly specified) [PI(37:3)] ... 298.9

Exercise: Please look up its collision cross section (N2): CCCCCCCCCCCCCCCC(=O)N[C@@H](COP(=O)([O-])OCC[N+](C)(C)C)[C@H](O)CCCCCCCCCCCCCCC [SM(34:0)]
Key: 284.8

Exercise: Quick one: CCCCCCCCCCCCCCCCCC(=O)N[C@@H](CO)[C@H](O)CCCCCCCCCCCCCCC [Cer(36:0)]
Key: 267.7

Exercise: Quick one: CCCCCC/C=C\CCCCCCCCCC(=O)OC[C@H](COP(=O)([O-])OCC[N+](C)(C)C)OC(=O)CCCCCCC/C=C\CCCCCC [PC(34:2)]
Key: 289.4

---

Conditions: [M+Na]+; instrument: TW; calibrated with polyalanine
collision cross section (N2) reference
Answer in Å², number only, no unit symbol.

Consider the following illustrative entries.
OCC1(O)OC[C@@H](O)[C@@H](O)[C@@H]1O (stereo partly drawn) ... 135
CC(=O)N[C@@H]1[C@@H](O)[C@H](O)[C@@H](CO)O[C@H]1O ... 153
O=C(O)C(CO)OP(=O)(O)O (stereo not drawn) ... 132
OC[C@H]1OC(O)[C@H](O)[C@@H](O)[C@H]1O (stereo partly drawn) ... 136
O=C(O)[C@H]1OC(O)[C@H](O)[C@@H](O)[C@@H]1O (stereo partly drawn) ... 140

Exercise: Please look up its collision cross section (N2): "O=C(O)CC(O)(CC(=O)O)C(=O)O"
Key: 138

Exercise: Quick one: "Cc1cn([C@H]2C[C@H](O)[C@@H](COP(=O)(O)O)O2)c(=O)[nH]c1=O"
Key: 170

Exercise: Quick one: OC[C@H]1OC(O)[C@H](O)[C@@H](O)[C@@H]1O (stereo partly drawn)
Key: 138

---

Settings: [M+H]+; instrument: TW; calibrated with phosphatidylcholines (ESI+) and phosphatidylethanolamines (ESI-)
collision cross section (N2) reference
Answer in Å², number only, no unit symbol.

CCCCC/C=C\C/C=C\C/C=C\CCCCCCC(=O)O[C@H](CO/C=C\CCCCCCCCCCCCCCCC)COP(=O)(O)OCCN ... 281.4
CCCCCCCCCCCCC=CC[C@@H](O)[C@H](CO)NC(=O)CC=CCCCCCCCCCCCCCCCCCCCCCC ... 282.4
CCCCCCCCCCCCC=CC[C@@H](O)[C@H](COP(=O)([O-])OCC[N+](C)(C)C)NC(=O)CC=CCCCCCCCCCCCCCCCCCC ... 295
CC/C=C\C/C=C\C/C=C\C/C=C\C/C=C\CCCC(=O)OC[C@H](COP(=O)(O)OCCN)OC(=O)CCCCC/C=C\C/C=C\C/C=C\C/C=C\CCCCC ... 288.2
CCCCCCCCCCCCCCCC(=O)OCC(O)COP(=O)([O-])OCC[N+](C)(C)C (centres undefined) ... 228.5

Exercise: Please look up its collision cross section (N2): "CCCCC/C=C\C/C=C\C/C=C\C/C=C\CCCCCC(=O)O[C@H](COC(=O)CCCCCCC/C=C\C/C=C\CCCCC)COP(=O)(O)OCCN"
Key: 282.9

Exercise: Quick one: "CCCCCCCC/C=C\CCCCCCCCCCCC(=O)OC[C@H](COP(=O)([O-])OCC[N+](C)(C)C)OC(=O)CCCCCCCCCCCCC"
Key: 291.6
